Every entry's value here was drawn from PubChem BioAssay (Tox21).

# SYSTEM: Cytochrome P450 3A4 (Homo sapiens) (UniProt P08684)
# Sequence (P08684 whole entry, looked up): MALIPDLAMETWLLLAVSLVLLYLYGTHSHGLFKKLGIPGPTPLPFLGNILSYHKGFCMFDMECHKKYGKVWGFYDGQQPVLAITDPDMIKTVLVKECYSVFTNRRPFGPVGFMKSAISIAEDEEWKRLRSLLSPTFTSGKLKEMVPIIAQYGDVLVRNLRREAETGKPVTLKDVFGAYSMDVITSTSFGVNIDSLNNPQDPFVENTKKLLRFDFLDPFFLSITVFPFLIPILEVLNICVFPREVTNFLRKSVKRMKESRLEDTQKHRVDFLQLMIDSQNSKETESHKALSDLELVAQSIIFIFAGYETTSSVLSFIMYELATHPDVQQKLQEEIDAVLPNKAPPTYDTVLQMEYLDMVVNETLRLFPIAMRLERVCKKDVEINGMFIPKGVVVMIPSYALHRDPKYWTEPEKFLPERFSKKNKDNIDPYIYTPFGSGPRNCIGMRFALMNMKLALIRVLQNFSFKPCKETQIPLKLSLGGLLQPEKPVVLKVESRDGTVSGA
# ASSAY EXPLANATION: Cytochrome P450 Family 3 Subfamily A Member 4 (CYP3A4) small molecule antagonists: luciferase reporter qHTS assay (AID 1671201); further: nearly all actives have a fitted effect of over 50% in size
# REPORTED CONDITIONS: P450-Glo CYP3A4 enzyme, luciferin luminescence, 1 h; series mostly up to 115 µM
Results filed as inconclusive are left out. Active and inactive are the calls of the source. The call rests on the fitted dose curve; in most records, active means well fitted inhibition curve with a large enough effect in the repeat runs; inconclusive means weak or mixed curves; inactive means no such curve, though single readings can be large or run the other way.
Allowed answers: active, inactive

{"MOLECULE": "CCOC1Oc2ccc(OS(C)(=O)=O)cc2C1(C)C (stereo not given)", "SYSTEM": "Cytochrome P450 3A4 (Homo sapiens) (UniProt P08684)", "QUALITATIVE LABEL": "inactive"}
{"MOLECULE": "CCNc1nc(Cl)nc(NC(C)(C)C)n1", "SYSTEM": "Cytochrome P450 3A4 (Homo sapiens) (UniProt P08684)", "QUALITATIVE LABEL": "inactive"}

input: Per the records of this test, what outcome belongs to CC#Cc1cc(C)nc(Nc2ccccc2)n1 ?
output: active

input: Per the records of this test, what outcome belongs to O=P(O)(O)CN(CP(=O)(O)O)CP(=O)(O)O ?
output: inactive

input: Per the records of this test, what outcome belongs to C[C@]12C=CC(=O)C=C1CC[C@@H]1[C@@H]2CC[C@@]2(C)[C@H]1CC[C@]2(C)O ?
output: inactive

---

# ASSAY EXPLANATION: qHTS assay for identifying genotoxic compounds that show differential cytotoxicity against isogenic chicken DT40 cell lines with known DNA damage response pathways - wild type cell line (AID 743012); further: nearly all actives have a fitted effect of over 60% in size
# REPORTED CONDITIONS: DT40 wild type chicken cells viability, CellTiter-Glo, 40 h; series mostly up to 68.4 µM
Results filed as inconclusive are left out. Active and inactive are the calls of the source. Calls come from the whole dose curve; as a rule, active = well fitted cell-killing curve with a large enough effect in the repeat runs; inconclusive = weak or mixed curves, or effect the other way; inactive = no such curve, though single readings can be large or run the other way.
Allowed answers: active, inactive

{"COMPOUND": "CC(C)(C)NC[C@H](O)c1ccc(O)cc1Cl", "QUALITATIVE LABEL": "inactive"}
{"COMPOUND": "Cc1ccc(-c2nc3ccc(C)cn3c2CC(=O)N(C)C)cc1", "QUALITATIVE LABEL": "inactive"}
{"COMPOUND": "C/C(=N\\NC(=O)Nc1cc(F)cc(F)c1)c1ncccc1C(=O)O", "QUALITATIVE LABEL": "inactive"}
{"COMPOUND": "CCC1(CC)C(=O)C=CNC1=O", "QUALITATIVE LABEL": "inactive"}
{"COMPOUND": "O=C(CCl)NCO", "QUALITATIVE LABEL": "inactive"}
{"COMPOUND": "ClCC1CO1 (stereo not given)", "QUALITATIVE LABEL": "inactive"}

input: Per the records of this test, what outcome belongs to CCOP(=S)(OCC)SCCl ?
output: inactive

input: Per the records of this test, what outcome belongs to CC[C@@H](CO)NC(=O)[C@@H]1C=C2c3cccc4c3c(cn4C)C[C@H]2N(C)C1 ?
output: active

input: Per the records of this test, what outcome belongs to COc1cccc(C=O)c1 ?
output: inactive

input: Per the records of this test, what outcome belongs to C=CCCC#N ?
output: inactive

input: Per the records of this test, what outcome belongs to CCOC(=O)C(Cl)Cc1cc(-n2nc(C)n(C(F)F)c2=O)c(F)cc1Cl (stereo not given) ?
output: active

input: Per the records of this test, what outcome belongs to C[C@H](CN1CCOCC1)C(C(=O)N1CCCC1)(c1ccccc1)c1ccccc1 ?
output: active

input: Per the records of this test, what outcome belongs to NNC(N)=O ?
output: inactive

input: Per the records of this test, what outcome belongs to CNC(=O)NC(O)C(Cl)(Cl)Cl (stereo not given) ?
output: inactive

input: Per the records of this test, what outcome belongs to CCCC[N+](=O)[O-] ?
output: inactive
